Cited source for all entries: ChEMBL document CHEMBL1909577

tested on: Liver microsomes; details: rat, 10 min, 300 µM
Description: Metabolic stability of the compound in rat liver microsomes assessed as stability rate per mg of protein at 300 uM after 10 mins by LC-MS/MS analysis in presence of NADPH
PROPERTY: Stability

# example entries with known answers
// Stability lookup, key: "N#Cc1ccc(-c2c(O)nc(SCc3ccccc3Cl)c3c2CCCC3)cc1"
0.3 nmol/min

// Stability lookup, key: "N#Cc1c(O)nc(SCc2ccc(Cl)cc2)c2c1CCCC2"
0.3 nmol/min

// Stability lookup, key: "N#Cc1c(O)nc(SCc2ccccc2Cl)c2cccc(F)c12"
0.13 nmol/min

// Stability lookup, key: "N#Cc1c(O)nc(SCc2ccccc2Cl)c2cc(F)ccc12"
0.04 nmol/min

// Stability lookup, key: "N#Cc1c(O)nc(Sc2ccccc2Cl)c2c1CCCC2"
0.15 nmol/min

Continuing:
// Stability lookup, key: "N#Cc1c(O)nc(SCCc2ccccc2Cl)c2c1CCCC2"
0.24 nmol/min

// Stability lookup, key: "N#Cc1c2c(c(SCc3c(Cl)cccc3Cl)[nH]c1=O)CCCC2"
Unstable

// Stability lookup, key: "CS(=O)(=O)c1ccccc1CSc1nc(O)c(C#N)c2c1CCCC2"
0.19 nmol/min

// Stability lookup, key: "N#Cc1ccc(F)c(CSc2nc(O)c(C#N)c3c2CCCC3)c1"
Unstable

// Stability lookup, key: "N#Cc1ncccc1CSc1nc(O)c(C#N)c2c1CCCC2"
0.05 nmol/min

// Stability lookup, key: "N#Cc1c(=O)[nH]c(SCc2ccccc2Cl)c2ccc(F)cc12"
0.05 nmol/min
